assayed target: MHC DR2 (DRB1*1501/DRA*0101) (Homo sapiens, UniProt P01903+P01911)
Construct: endogenous in cells; host or cells: EBV homozygous (B lymphoblastoid) cell lines
method: HLA II Binding Assay (competition with biotinylated reference peptide)
condition summary: purified HLA-DR, biotinylated reference compound for DRB1*1501, 37° C. 24 h to 72 h; read-out: Inhibition of peptide binding IC50 (against MHC DR2 (DRB1*1501/DRA*0101))
Numbered stars: 1 amine (or outer) side, 2 acyl side, 3 side chain; on linkers, the order of the positions; unused ones are H or OH. Square brackets hold non-standard residues; d marks the D form. Peptide text beside a SMILES is read from it. X8 = Nc1nc(C[C@H](N[*:1])C(=O)[*:2])c[nH]1; Igl = N[C@H](C(=O)O)C1Cc2ccccc2C1; Tic = O=C(O)[C@@H]1Cc2ccccc2CN1; Chg = N[C@H](C(=O)O)C1CCCCC1; Pip = O=C(O)[C@@H]1CCCCN1
Assign IC50 to each entry below.

Worked cases, IC50 given:
* CC(=O)N[C@H](C(=O)N[C@@H](CCCNC(=N)N)C(=O)N1CCCC[C@H]1C(=O)N[C@@H](Cc1ccccc1)C(=O)N1CCCC[C@H]1C(N)=O)C1CCCCC1 [Ac(Chg)R(homo Pro)F(homo Pro)] (Ac-[Chg]R[Pip]F[Pip]-NH2) | 100 to 1000 nM
* CC(=O)N[C@H](C(=O)N[C@H](C(=O)N[C@@H](Cc1c[nH]c(N)n1)C(=O)N1Cc2ccccc2C[C@H]1C(=O)N[C@@H](Cc1ccccc1)C(N)=O)C1CCCCC1)C(C)C [AcV(Chg)(2-amino His)(Tic)F] (Ac-V[Chg][X8][Tic]F-NH2) | 10 to 100 nM
* CNC(=O)[C@H](Cc1ccccc1)NC(=O)[C@@H]1Cc2ccccc2CN1C(=O)[C@H](CCCNC(=N)N)NC(=O)[C@@H](NC(=O)[C@@H](NC(C)=O)C(C)C)C1Cc2ccccc2C1 [AcV(Indgly)R(Tic)F-CONHMe] (Ac-V[Igl]R[Tic]F-NHMe) | 1 to 10 nM

Query compound follows.
Looking up CNC(=O)[C@H](Cc1ccccc1)NC(=O)[C@@H]1Cc2ccccc2CN1C(=O)[C@H](CCCNC(=N)N)NC(=O)[C@@H](NC(=O)[C@@H](NC(C)=O)C(C)C)C1CCCCC1 [AcV(Chg)R(Tic)F-CONHMe] (Ac-V[Chg]R[Tic]F-NHMe) , I found its IC50 recorded as 10 to 100 nM

Ref: patent US20110217324A1
